- Test system: Trichosporon asahii
- experiment-summary: Antifungal activity against Trichosporon asahii 1188 after 24 hrs by microdilution broth method
- Type: functional
- measurement-conditions: Trichosporon asahii, 1188, 24 h
measurement-kind: MIC

Here is how some molecules turned out for MIC.
structure-string | measurement-kind | reported
O=C(Nc1cc(C(F)(F)F)cc(C(F)(F)F)c1)c1ccc([N+](=O)[O-])cc1O | MIC | > 500 µM
O=C(Nc1cccc(C(F)(F)F)c1)c1cc([N+](=O)[O-])ccc1O | MIC | 500 µM

Would you mind listing MIC for each of the following molecules?
1. O=C(Nc1cccc(F)c1)c1ccc([N+](=O)[O-])cc1O
2. O=C(Nc1ccc(C(F)(F)F)cc1)c1cc([N+](=O)[O-])ccc1O

RESULT:
1: 250 µM; 2: 500 µM

Report MIC for every entry below.
1. O=C(Nc1cccc(I)c1)c1cc([N+](=O)[O-])ccc1O
2. O=C(Nc1cccc(C(F)(F)F)c1)c1ccc([N+](=O)[O-])cc1O

RESULT:
250 µM
62.5 µM

For each of the molecules below, note its MIC.
1. O=C(Nc1ccc([N+](=O)[O-])c(C(F)(F)F)c1)c1ccc([N+](=O)[O-])cc1O
2. O=C(Nc1ccc(Cl)c(Cl)c1)c1cc([N+](=O)[O-])ccc1O

RESULT:
["250 µM", "> 500 µM"]

I'm hoping you can list MIC for every molecule here, please.
1. O=C(Nc1ccc([N+](=O)[O-])c(C(F)(F)F)c1)c1cc([N+](=O)[O-])ccc1O
2. O=C(Nc1cccc([N+](=O)[O-])c1)c1cc([N+](=O)[O-])ccc1O

RESULT:
> 500 µM
> 250 µM

###

- Tested on: Mycobacterium kansasii
- experiment-summary: Antimycobacterial activity against Mycobacterium kansasii 6509/96 after 7 days
- Type: functional
- measurement-conditions: 6509/96, 168 h
Hi there, I'd appreciate the recorded MIC for every entry that follows.
Answers are plain numbers, in µM.

structure-string | MIC (µM)
O=C(Nc1ccc([N+](=O)[O-])c(C(F)(F)F)c1)c1cccc([N+](=O)[O-])c1O | 32
O=C(Nc1cccc([N+](=O)[O-])c1)c1cc([N+](=O)[O-])ccc1O | 62.5
O=C(Nc1cccc(Br)c1)c1cc([N+](=O)[O-])ccc1O | 32

List reported MIC for each of these molecules:
1. O=C(Nc1cccc(Cl)c1)c1cccc([N+](=O)[O-])c1O
2. O=C(Nc1cccc(I)c1)c1cccc([N+](=O)[O-])c1O

RESULT:
125
125

###

- Tested on: Klebsiella pneumoniae
- experiment-summary: Antibacterial activity against Klebsiella pneumoniae D 11750/08 after 48 hrs by microdilution broth method
- Assay type: functional
- measurement-conditions: D 11750/08, 48 h
measurement-kind: MIC

// input: 6 compounds below; output: MIC for each
1. O=C(Nc1cccc(F)c1)c1cc([N+](=O)[O-])ccc1O
2. O=C(Nc1cccc(I)c1)c1ccc([N+](=O)[O-])cc1O
3. O=C(Nc1ccc(C(F)(F)F)cc1)c1ccc([N+](=O)[O-])cc1O
4. O=C(Nc1cccc(I)c1)c1cc([N+](=O)[O-])ccc1O
5. O=C(Nc1cc(C(F)(F)F)cc(C(F)(F)F)c1)c1ccc([N+](=O)[O-])cc1O
6. O=C(Nc1ccc([N+](=O)[O-])cc1)c1ccc([N+](=O)[O-])cc1O

RESULT:
> 500 µM
> 500 µM
500 µM
> 500 µM
> 500 µM
> 500 µM
